testedSystem: human epidermal growth factor receptor 2 (HER2), membrane-bound on cells (human, UniProt P04626 23-1255)
measurementDescription: cell-based or functional assay
propertyName: EC50, fab-CypHer5E internalization, AU565 (µg/mL)
Numbers only, in µg/mL.

Please give EC50, fab-CypHer5E internalization, AU565 for each item listed below.
1. HuMab 129 (antibody, V domains shown) VH: QVQLVESGGGVVQPGRSLRLSCAASGFTFSTFAIHWVRQAPGKGLEWVAVISYDGGHKFYADSVKGRFTISRDNSKNTLYLQMNSLRAEDTAMYYCARGLGVWGAFDYWGQGTLVTVSS VL: EIVLTQSPATLSLSPGERATLSCRASQSVSSYLAWYQQKPGQAPRLLIYDASNRATGIPARFSGSGSGTDFTLTISSLEPEDFAVYYCQQRSNWWTFGQGTKVEIK
2. HuMab 025 (antibody, V domains shown, also called TH1014-025; PC1014-025) VH: QVQLQQWGAGLLKPSETLSLTCAVYGGSFSDYYWNWIRQPPGKGLEWIGEIHHSGSTNYNPSLKSRVTISVDTSKNQFSLKLSSVTAADTAVYYCARGYYDSGVYYFDYWAQGTLVTVSS VL: DIQMTQSPSSLSASVGDRVTITCRASQGISRWLAWYQQKPEKAPKSLIYAASSLRSGVPSRFSGSGSGTDFTLTISSLQPEDFATYYCQQYNSYPITFGQGTRLEIK
3. HuMab 091 (antibody, V domains shown, also called TH1014-091; PC1014-091) VH: QVQLQQWGAGLLKPSETLSLTCAVSGGSFSGYYWTWIRQPPGKGLEWIGEIYHSGDTNYNPSLKSRVTISVDTSKNQFSLKLYSVTAADTAVYYCARLYFGSGIYYLDYWGQGTLVTVSS VL: DIQMTQSPSSLSASVGDRVTITCRASQGISSWLVWYQQKPEKAPKSLIYAASSLQSGVPSRFSGSGSGTDFTLTISSLQPEDFATYYCQQYNSFPPTFGQGTKVEIK

Return:
0.00715
0.0301
0.033
